# TEST SYSTEM: human plasma kallikrein (human, UniProt P03952 20-390; P03952 391-638)
# Sequence (P03952 20-390, chain 1 of 2): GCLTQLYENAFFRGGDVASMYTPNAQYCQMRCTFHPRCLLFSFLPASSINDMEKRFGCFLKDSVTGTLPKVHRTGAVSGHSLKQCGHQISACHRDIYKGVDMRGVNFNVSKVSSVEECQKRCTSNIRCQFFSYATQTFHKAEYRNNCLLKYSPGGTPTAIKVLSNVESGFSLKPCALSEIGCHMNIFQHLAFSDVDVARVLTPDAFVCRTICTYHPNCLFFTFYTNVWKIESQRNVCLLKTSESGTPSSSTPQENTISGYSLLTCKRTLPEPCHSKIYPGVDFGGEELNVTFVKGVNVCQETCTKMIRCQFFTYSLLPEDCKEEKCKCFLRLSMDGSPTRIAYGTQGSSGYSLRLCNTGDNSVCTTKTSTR
# Sequence (P03952 391-638, chain 2 of 2): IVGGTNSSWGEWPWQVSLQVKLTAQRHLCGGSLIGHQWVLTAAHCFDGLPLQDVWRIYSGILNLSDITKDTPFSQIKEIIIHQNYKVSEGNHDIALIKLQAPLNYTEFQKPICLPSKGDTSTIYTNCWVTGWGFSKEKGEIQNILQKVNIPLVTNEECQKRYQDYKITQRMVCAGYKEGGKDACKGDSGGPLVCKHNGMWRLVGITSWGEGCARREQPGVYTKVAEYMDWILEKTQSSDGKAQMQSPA
# PROTOCOL TEXT: cell-based or functional assay
Listed here are binders together with their documented % inhibition at 10 nM.

[
  {
    "BINDER": "M200-A10 (Fab, V domains shown, Tested as Fab; printed HC runs into CH1) VH: EVQLLESGGGLVQPGGSLRLSCAASGFTFSHYIMMWVRQAPGKGLEWVSGIYSSGGITVYADSVKGRFTISRDNSKNTLYLQMNSLRAEDTAVYYCAYRRTGVPRRDSFDIWGQGTMVTVSS VL: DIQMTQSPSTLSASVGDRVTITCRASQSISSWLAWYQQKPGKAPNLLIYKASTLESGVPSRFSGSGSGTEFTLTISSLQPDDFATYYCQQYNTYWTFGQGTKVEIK",
    "% inhibition at 10 nM, %": 94.3
  },
  {
    "BINDER": "M198-C03 (Fab, V domains shown) VH: EVQLLESGGGLVQPGGSLRLSCAASGFTFSRYSMSWVRQAPGKGLEWVSGISPSGGETSYADSVKGRFTISRDNSKNTLYLQMNSLRAEDTAVYYCAYRRTGIPRRDAFDIWGQGTMVTVSS VL: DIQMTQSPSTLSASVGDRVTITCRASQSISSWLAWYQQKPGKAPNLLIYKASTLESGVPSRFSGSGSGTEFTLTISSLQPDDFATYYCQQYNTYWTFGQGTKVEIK",
    "% inhibition at 10 nM, %": 72.4
  },
  {
    "BINDER": "M198-G07 (Fab, V domains shown) VH: EVQLLESGGGLVQPGGSLRLSCAASGFTFSIYDMTWVRQAPGKGLEWVSSIYPSGGQTIYADSVKGRFTISRDNSKNTLYLQMNSLRAEDTAVYYCAYRRTGIPRRDAFDIWGQGTMVTVSS VL: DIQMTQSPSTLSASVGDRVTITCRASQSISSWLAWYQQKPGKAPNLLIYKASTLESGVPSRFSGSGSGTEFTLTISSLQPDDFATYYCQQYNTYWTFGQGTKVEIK",
    "% inhibition at 10 nM, %": 94.9
  }
]
